Values compiled from patent US20240309004A1.

Would you kindly list pEC50 for each of these compounds?
System: HSV2 strain G
Test: HSV2 primary assay, strain G, HFF cells
Format: cell-based, herpes simplex virus 2
Details: Human alphaherpesvirus 2; HSV2 primary assay, strain G, HFF cells; read-out: EC50
One number for each entry, as −log10 of the molar value.

// solved cases for pEC50 follow
COMPOUND: CNC1CCC(Nc2cc3c4ccc(F)cc4nn3cn2)CC1 (centres unmarked) [VKT-006]
pEC50: 5.00
--
COMPOUND: CN(C(=O)OC(C)(C)C)C1CCC(Nc2cc3c4ccc(F)cc4nn3cn2)CC1 (centres unmarked) [VKT-005]
pEC50: 5.70
--
COMPOUND: NC(=O)CN1CCC(Nc2cc3c4ccc(F)cc4nn3cn2)CC1 [VKT-026]
pEC50: 5.00
--
COMPOUND: Fc1ccc2c(c1)nn1cnc(NC3CCCOCC3)cc21 (centres unmarked) [VKT-015]
pEC50: 4.30

CN(C)CC1CCC(Nc2cc3c4ccc(F)cc4nn3cn2)CC1 (centres unmarked) [VKT-008] yielded pEC50 of 4.30

---

Assignment: determine reported pEC50 for the given compounds.
Tested on: Adenovirus Adenoid75 strain
Experiment: Adenovirus primary assay, Adenoid75 strain, HFF cells
Assay type: cell-based
Conditions: unidentified adenovirus, HFF
Give bare numbers, as −log10 of the molar value.

COMPOUND: OCC1CCC(Nc2cc3c4ccc(F)cc4nn3cn2)CC1 (centres unmarked)
READOUT NUMBER: 5.29

Shift focus to the following entry.
Short answer for `CN1CCC(Nc2cc3c4ccc(F)cc4nn3cn2)CC1` : pEC50 was 4.30

---

Test: Cytotoxicity concurrent with Adenovirus secondary assay
Type: cell-based
Details: human; Adeno secondary assay, HFF cells
ASSAY ENDPOINT: CC50 (µM)
Numbers only, in µM.

Value of CC50 reported for the compound OCC1CCC(Nc2cc3c4ccc(F)cc4nn3cn2)CC1 (stereo not shown) is 100

---

Test system: VZV strain Ellen
Experiment: VZV primary assay, strain Ellen, HFF cells
Format: cell-based, Varicella Zoster Virus
Details: Human alphaherpesvirus 3; VZV primary assay, strain Ellen, cell line HFF; read-out: EC90
ASSAY ENDPOINT: EC90 (µM)
Numbers only, in µM.

COMPOUND: NC(=O)CN1CCC(Nc2cc3c4ccc(F)cc4nn3cn2)CC1
EC90 (µM): 10
//
COMPOUND: Fc1ccc2c(c1)nn1cnc(NC3CCSCC3)cc21
EC90 (µM): 10
//
COMPOUND: O=S1(=O)CCC(Nc2cc3c4ccc(F)cc4nn3cn2)CC1
EC90 (µM): 50
//
COMPOUND: CNC1CCC(Nc2cc3c4ccc(F)cc4nn3cn2)CC1 (centres unmarked)
EC90 (µM): 10

Moving on to the next compound.
compound CN(C)CC1CCC(Nc2cc3c4ccc(F)cc4nn3cn2)CC1 (centres unmarked) , EC90 observed: 10

---

Experiment: Cytotoxicity concurrent with HSV2 primary assay
Format: cell-based
Conditions: human
Assign CC50 to each entry below.

Sample answers from the record:
COMPOUND: CN(C)CC1CCC(Nc2cc3c4ccc(F)cc4nn3cn2)CC1 (stereo not shown)
CC50: 50 µM

COMPOUND: CN1CCC(Nc2cc3c4ccc(F)cc4nn3cn2)CC1
CC50: 50 µM

COMPOUND: NC(=O)CN1CCC(Nc2cc3c4ccc(F)cc4nn3cn2)CC1
CC50: 29.4 µM

COMPOUND: CN(C(=O)OC(C)(C)C)C1CCC(Nc2cc3c4ccc(F)cc4nn3cn2)CC1 (stereo not shown)
CC50: 7.94 µM

COMPOUND: Fc1ccc2c(c1)nn1cnc(NC3CCCOCC3)cc21 (stereo not shown)
CC50: 50 µM

Take each entry in turn and give its CC50.
1. NCC1CCC(Nc2cc3c4ccc(F)cc4nn3cn2)CC1 (stereo not shown)
2. Fc1ccc2c(c1)nn1cnc(NC3CCSCC3)cc21

Key:
["24.4 µM", "50 µM"]

Fill in CC50 for each of the 3 compounds listed.
1. O=S1(=O)CCC(Nc2cc3c4ccc(F)cc4nn3cn2)CC1
2. CNC1CCC(Nc2cc3c4ccc(F)cc4nn3cn2)CC1 (stereo not shown)
3. CC(C)(C)OC(=O)N[C@H]1CCC(Nc2cc3c4ccc(F)cc4nn3cn2)C1 (stereo partly shown)

Key:
["50 µM", "42.8 µM", "17.7 µM"]

---

Experiment: Cytotoxicity concurrent with HCMV AD169 primary assay
Assay type: cell-based, human
Details: human; HCMV primary assay, HFF cells; read-out: CC50
ASSAY ENDPOINT: CC50 (µM)
Give bare numbers, in µM.

MOLECULE: OCC1CCC(Nc2cc3c4ccc(F)cc4nn3cn2)CC1 (centres unmarked)
UNITS: µM
CC50: 50

CC50 in this record for OCCC1CCC(Nc2cc3c4ccc(F)cc4nn3cn2)CC1 (centres unmarked) : 26.2

---

Tested on: Epstein-Barr virus Akata strain
Experiment: Epstein-Barr primary assay, Akata strain, Akata cells
Type: cell-based
Conditions: human gammaherpesvirus 4; Epstein-Barr primary assay, Akata strain, Akata cells; read-out: EC50
Field: pEC50. Provide a value for each of the compounds that follow.
Give bare numbers, as −log10 of the molar value.

COMPOUND: CC(C)(C)OC(=O)N[C@H]1CCC(Nc2cc3c4ccc(F)cc4nn3cn2)C1 (some centres unmarked) [VKT-035]
TARGET OR SYSTEM: Epstein-Barr virus Akata strain
pEC50: 5.00

Please look at the items below and tell me pEC50 for each one, in order.
1. CN(C(=O)OC(C)(C)C)C1CCC(Nc2cc3c4ccc(F)cc4nn3cn2)CC1 (centres unmarked) [VKT-005]
2. Fc1ccc2c(c1)nn1cnc(NC3CCSCC3)cc21 [VKT-017]
3. O=S1(=O)CCC(Nc2cc3c4ccc(F)cc4nn3cn2)CC1 [VKT-018]

Key:
1: 5.00; 2: 4.63; 3: 4.34

Given item CN(C)CC1CCC(Nc2cc3c4ccc(F)cc4nn3cn2)CC1 (centres unmarked) [VKT-008] , the value recorded as its pEC50 is 5.09

---

Test: Cytotoxicity concurrent with HSV1 E-377 primary assay
Assay type: cell-based
Conditions: human
Please respond with reported CC50 for every item in the list.
Numbers only, in µM.

// below: answered compounds
COMPOUND: NC(=O)CN1CCC(Nc2cc3c4ccc(F)cc4nn3cn2)CC1
UNITS: µM
READOUT NUMBER: 10
//
COMPOUND: CN(C(=O)OC(C)(C)C)C1CCC(Nc2cc3c4ccc(F)cc4nn3cn2)CC1 (stereo not shown)
UNITS: µM
READOUT NUMBER: 16
//
COMPOUND: CNC1CCC(Nc2cc3c4ccc(F)cc4nn3cn2)CC1 (stereo not shown)
UNITS: µM
READOUT NUMBER: 38.5
//
COMPOUND: O=S1(=O)CCC(Nc2cc3c4ccc(F)cc4nn3cn2)CC1
UNITS: µM
READOUT NUMBER: 50
//
COMPOUND: Fc1ccc2c(c1)nn1cnc(NC3CCSCC3)cc21
UNITS: µM
READOUT NUMBER: 50

// each compound listed below needs its CC50
1. NCC1CCC(Nc2cc3c4ccc(F)cc4nn3cn2)CC1 (stereo not shown)
2. N[C@@H]1CC[C@H](Nc2cc3c4ccc(F)cc4nn3cn2)C1
3. Fc1ccc2c(c1)nn1cnc(NC3CCCOCC3)cc21 (stereo not shown)
4. CN(C)CC1CCC(Nc2cc3c4ccc(F)cc4nn3cn2)CC1 (stereo not shown)
5. N[C@H]1CC[C@H](Nc2cc3c4ccc(F)cc4nn3cn2)C1
6. CC(C)(C)OC(=O)N[C@H]1CCC(Nc2cc3c4ccc(F)cc4nn3cn2)C1 (stereo partly shown)
7. CN1CCC(Nc2cc3c4ccc(F)cc4nn3cn2)CC1

Key:
1: 20.8; 2: 18.7; 3: 50; 4: 50; 5: 29.4; 6: 15.9; 7: 50

The reported value for CN(C)C1CCC(Nc2cc3c4ccc(F)cc4nn3cn2)CC1 (stereo not shown) in terms of CC50 is 16.1

---

Assay: Cytotoxicity concurrent with HCMV AD169 primary assay
Format: cell-based, human
Settings: human, CC50
ASSAY ENDPOINT: CC50 (µM)
Numbers only, in µM.

Below: 5 compounds and their reported CC50.
COMPOUND: CN(c1cc2c3ccc(F)cc3nn2cn1)C1CCC(CNC(=O)OC(C)(C)C)CC1 (stereo not drawn)
UNITS: µM
CC50: 0.57
--
COMPOUND: Fc1ccc2c(c1)nn1cnc(NC3CCSCC3)cc21
UNITS: µM
CC50: 21.4
--
COMPOUND: CN(C)CC(=O)N1CCC(Nc2cc3c4ccc(F)cc4nn3cn2)CC1
UNITS: µM
CC50: 32
--
COMPOUND: CNC1CCC(Nc2cc3c4ccc(F)cc4nn3cn2)CC1 (stereo not drawn)
UNITS: µM
CC50: 32.5
--
COMPOUND: CCN1CCC(Nc2cc3c4ccc(F)cc4nn3cn2)CC1
UNITS: µM
CC50: 48.1

Could I get CC50 for every one of these entries?
1. Fc1ccc2c(c1)nn1cnc(NC3CCOCC3)cc21
2. CN1CCC(Nc2cc3c4ccc(F)cc4nn3cn2)CC1
3. CC(C)(C)OC(=O)N[C@H]1CCC(Nc2cc3c4ccc(F)cc4nn3cn2)C1 (stereo partly drawn)
4. CN(C)CC1CCC(Nc2cc3c4ccc(F)cc4nn3cn2)CC1 (stereo not drawn)
5. CNC(=O)CN1CCC(Nc2cc3c4ccc(F)cc4nn3cn2)CC1
6. CC(C)(C)OC(=O)NCC1CCC(Nc2cc3c4ccc(F)cc4nn3cn2)CC1 (stereo not drawn)
7. Fc1ccc2c(c1)nn1cnc(NC3CCCOCC3)cc21 (stereo not drawn)

Key:
[38.5, 46, 8.14, 38.8, 50, 6.19, 27.7]

Give measured CC50 for every item shown.
1. Fc1ccc2c(c1)nn1cnc(NC3CCNCC3)cc21
2. CC1CC(Nc2cc3c4ccc(F)cc4nn3cn2)CC(C)O1 (stereo not drawn)
3. O=S1(=O)CCC(Nc2cc3c4ccc(F)cc4nn3cn2)CC1
4. CC1CC(Nc2cc3c4ccc(F)cc4nn3cn2)CCO1 (stereo not drawn)
5. Fc1ccc2c(c1)nn1cnc(NC3COCCOC3)cc21
6. Nc1nc(O)c2ncn(COC(CO)CO)c2n1 [Ganciclovir, ganciclovir, reference compound]
7. NCC1CCC(Nc2cc3c4ccc(F)cc4nn3cn2)CC1 (stereo not drawn)
8. CN(CC1CCC(N(C)c2cc3c4ccc(F)cc4nn3cn2)CC1)C(=O)OC(C)(C)C (stereo not drawn)

Key:
[37.5, 48.1, 50, 38.6, 48.5, 150, 7.42, 0.17]

For record CN(C(=O)OC(C)(C)C)C1CCC(Nc2cc3c4ccc(F)cc4nn3cn2)CC1 (stereo not drawn) the listed CC50 is 1.48
